molecular target: Tubulin (Sus scrofa, UniProt P02554+P02550); assay: Inhibition of pig tubulin polymerization by spectrophotometry; format: protein assay
MEASURED PARAMETER: IC50 (µM)
The reply should contain only the number, in µM.

State the recorded IC50 for this entry: COc1ccc(/C=C(\C#N)c2cc(OC)c(OC)c(OC)c2)cc1F 18.5

State the recorded IC50 for this entry: COc1ccc(/C=C(\C#N)c2cc(OC)c(OC)c(OC)c2)cc1Br 35.6

State the recorded IC50 for this entry: COc1ccc(/C=C(\C#N)c2cc(OC)c(OC)c(OC)c2)cc1I 43.8

State the recorded IC50 for this entry: COc1ccc(/C=C(\C#N)c2cc(OC)c(OC)c(OC)c2)cc1B(O)O 17.4

State the recorded IC50 for this entry: COc1ccc(/C=C(/C#N)c2cc(OC)c(OC)c(OC)c2)cc1F 4.2

State the recorded IC50 for this entry: C#Cc1cc(/C=C(\C#N)c2cc(OC)c(OC)c(OC)c2)ccc1OC 25.3

====

system: K562; assay: Antiproliferative activity against human K562 cells by MTT assay; type: functional, cell-based
IC50 strictly less than 40 nM = condition met. Otherwise condition not met.

Decide: IC50 of COc1ccc(/C=C(\C#N)c2cc(OC)c(OC)c(OC)c2)cc1F strictly below 40 nM? condition met

Decide: IC50 of COc1ccc(/C=C(/C#N)c2cc(OC)c(OC)c(OC)c2)cc1F strictly below 40 nM? condition met

Decide: IC50 of C#Cc1cc(/C=C(\C#N)c2cc(OC)c(OC)c(OC)c2)ccc1OC strictly below 40 nM? condition met

Decide: IC50 of COc1ccc(/C=C/c2cc(OC)c(OC)c(OC)c2)cc1Br strictly below 40 nM? condition not met

Decide: IC50 of COc1ccc(/C=C\c2cc(OC)c(OC)c(OC)c2)cc1F strictly below 40 nM? condition met

Decide: IC50 of COc1ccc(/C=C(\C#N)c2cc(OC)c(OC)c(OC)c2)cc1Br strictly below 40 nM? condition not met

Decide: IC50 of COc1ccc(/C=C(\C#N)c2cc(OC)c(OC)c(OC)c2)cc1I strictly below 40 nM? condition not met

Decide: IC50 of COc1ccc(/C=C/c2cc(OC)c(OC)c(OC)c2)cc1F strictly below 40 nM? condition not met

Decide: IC50 of COc1ccc(/C=C\c2cc(OC)c(OC)c(OC)c2)cc1O [COMBRETASTATIN A4] strictly below 40 nM? condition met

Decide: IC50 of COc1ccc(/C=C(\C#N)c2cc(OC)c(OC)c(OC)c2)cc1B(O)O strictly below 40 nM? condition met
